// provenance: PubChem BioAssay (NCI)

- Tested on: KM12 colon
- assay-text: NCI tumour cell line growth inhibition, 48 h
Entries annotated with measured TGI

Asked: Look at this molecule and give its reported TGI. Brc1ccc(-c2cn3ccncc3n2)cc1
Given back: > 100 µM

Asked: Look at this molecule and give its reported TGI. O=[As](O)(O)c1ccc(N=Nc2ccc(O)cc2)cc1
Given back: > 100 µM

Asked: Look at this molecule and give its reported TGI. COc1cc2nc(NCCCCCNC(=O)c3ccco3)nc(N)c2cc1OC
Given back: 62.4 µM

---
Asked: Look at this molecule and give its reported TGI. COC(=O)c1cnn2c1n[n+]([O-])c1ccccc12
Given back: > 100 µM

Asked: Look at this molecule and give its reported TGI. Cc1nc2ccccc2c(/C=C/c2ccc(Br)cc2)c1C(=O)/C=C/c1ccccc1
Given back: 4.37 µM

Asked: Look at this molecule and give its reported TGI. O=C(NC1CCCC1=O)c1ccccc1 (stereo not drawn)
Given back: > 100 µM

Asked: Look at this molecule and give its reported TGI. CC(C)C1=CC23CCC4C(C)(C(=O)O)CCCC4(C)C2CC1C1C(=O)N(c2ccc(C(=O)O)cc2)C(=O)C13 (stereo not drawn)
Given back: > 100 µM

Asked: Look at this molecule and give its reported TGI. O=C(O)COc1c(Cl)cc(Cl)c2cccnc12
Given back: > 100 µM

Asked: Look at this molecule and give its reported TGI. CC(C)(C)c1cc(C2COC(c3cc(C(C)(C)C)c(O)c(C(C)(C)C)c3)CO2)cc(C(C)(C)C)c1O (stereo not drawn)
Given back: > 100 µM

Asked: Look at this molecule and give its reported TGI. Cc1nc(-c2ccc(N=Cc3ccc(N(CCOS(C)(=O)=O)CCOS(C)(=O)=O)cc3C)cc2)cs1
Given back: > 100 µM

Asked: Look at this molecule and give its reported TGI. CCCCCCN(N)C(=O)CC#N
Given back: > 100 µM

Asked: Look at this molecule and give its reported TGI. O=c1[nH]cnc2c(C3NC(CO)C(O)C3O)c[nH]c12 (stereo not drawn)
Given back: > 100 µM

Asked: Look at this molecule and give its reported TGI. Cc1cc(NCCCCCCCNc2cc(C)nc3cc([N+](=O)[O-])ccc23)c2ccc([N+](=O)[O-])cc2n1
Given back: 3.74 µM

Asked: Look at this molecule and give its reported TGI. COc1ccc(C=O)c(NC(=O)C(C)C)c1
Given back: > 10 µM

Asked: Look at this molecule and give its reported TGI. CCCCCn1sc(=O)n(Cc2ccc(CNC(=O)OCc3ccc4cccc(O)c4n3)cc2)c1=O
Given back: 8.91 µM

Asked: Look at this molecule and give its reported TGI. O=C1NC(=S)N(c2ccccc2)C1=O
Given back: > 100 µM

Asked: Look at this molecule and give its reported TGI. O=C(CSC1=NCCN1)Nc1ccccc1
Given back: > 100 µM

Asked: Look at this molecule and give its reported TGI. Cn1cc(-c2nonc2-c2cn(C)c3ccccc23)c2ccccc21
Given back: > 100 µM
